# Tested on: redroot pigweed (Amaranthus retroflexus)
# testName: Test G Pre-Emergence Protocol
# Assay type: in vivo
# measurementParameters: Amaranthus retroflexus, pre-emergence, 312 h, 250 g ai/ha, evaluated after 13 days, read-out: Pigweed, Redroot damage rating (100=total damage to plant; 0=no damage to plant)
Answer each item with its documented pest or weed control at 250 g/ha.
Give a bare numeral; the unit % is implied.

IN: I have this molecule here, CN1C[C@@H](c2ccc(C(F)(F)F)cc2)[C@H](C(=O)Nc2ccnc(C(F)(F)F)c2)C1=O (racemic) , and I need its recorded pest or weed control at 250 g/ha.
OUT: 0

IN: I have this molecule here, CCOc1cc(C2CN(C)C(=O)C2C(=O)Nc2cccc(F)c2F)ccc1OC (stereo not shown) , and I need its recorded pest or weed control at 250 g/ha.
OUT: 20

IN: I have this molecule here, Cc1cccnc1NC(=O)C1C(=O)N(C)CC1c1ccc(C(F)(F)F)cc1 (stereo not shown) , and I need its recorded pest or weed control at 250 g/ha.
OUT: 0

IN: I have this molecule here, Cc1cc(NC(=O)[C@@H]2C(=O)N(C)C[C@H]2c2ccc(C(F)(F)F)cc2)sn1 (racemic) , and I need its recorded pest or weed control at 250 g/ha.
OUT: 0
